- Tested on: 786-0 renal
- Measurement Description: NCI tumour cell line growth inhibition, 48 h
Entries and their TGI
Recorded Metric: TGI

| Compound | Recorded Metric | Result |
| --- | --- | --- |
| Cc1ccc2c(c1)SSSSS2 | TGI | 37.2 µM |
| C/C(=N\NC(=S)N1CCCCCC1)c1nccnc1C | TGI | > 100 µM |
| COc1cccc(N2C(=O)c3c(c4[nH]c5ccccc5c4c4ccc(C(C)(C)C)cc34)C2=O)c1 | TGI | > 100 µM |
| CC/C=C\C[C@H](O)C/C=C1/C(=O)C=C[C@@H]1C/C=C\CCCC(=O)NC(C)C | TGI | 5.4 µM |
| Cc1ccc(C)c(NC(=O)C(=O)C(c2cnc3ccc([N+](=O)[O-])cc3n2)[N+](=O)[O-])c1 (stereo not given) | TGI | > 100 µM |
| CC(=O)N=C(N=Nc1c(O)[nH]c2ccc(C)cc12)NC(C)=O | TGI | > 100 µM |
| O=C(Cc1nc2ccccc2s1)C(=O)Nc1ccc(Cl)cc1 | TGI | > 100 µM |
| O=C(Nc1ccc(S(=O)(=O)Nc2nccs2)cc1)c1cccnc1Nc1cccc(Cl)c1 | TGI | 39.9 µM |
| Cc1ccccc1NC(=O)NC(Oc1ccccc1)(C(F)(F)F)C(F)(F)F | TGI | > 100 µM |
| C/C(CN1C(=O)c2ccccc2C1=O)=N\NS(=O)(=O)c1cccc([N+](=O)[O-])c1 | TGI | > 100 µM |
| NC(=O)NC(=O)c1cnccn1 | TGI | > 100 µM |
| O=C(Nc1ccc(Cl)c(C(F)(F)F)c1)C(=O)C(C(=O)/C=C/c1ccccc1)C1OC(=O)c2ccccc21 (stereo not given) | TGI | > 100 µM |
| O=C1c2ccccc2-c2c1c1ccccc1c(=O)n2Cc1ccco1 | TGI | > 100 µM |
| CCOC(=O)CN1CCNCCN(CC(=O)OCC)CCNCC1 | TGI | > 100 µM |
| CSC(SC)=C1CC(=O)Nc2ccccc2C1=O | TGI | > 100 µM |
| CC(C)=CCC[C@]1(C)CC[C@]2(C)C3CCC(=C(C)C)[C@@H](CCCO)[C@]3(C)CC[C@@]2(C)C1 (stereo not given in full) | TGI | > 100 µM |
| CCOC(=O)c1c(C)n(Cc2ccccc2)c(=O)c2ccccc2c(=O)c2c(=O)ccc(=O)c1=2 | TGI | 75.3 µM |
| COc1ccc(/C=C2\C=Cc3ccccc32)cc1OC | TGI | > 100 µM |
| Cc1cc(-c2ccc(C(=O)O)[nH]2)on1 | TGI | > 100 µM |
| O=S(=O)([O-])[O-].[OH3+].[OH3+].[OH3+].[Ru+2].c1ccccc1 | TGI | > 100 µM |

====

- System: SN12C renal
- Measurement Description: NCI tumour cell line growth inhibition, 48 h
The compounds listed here are annotated with their TGI.

| Compound | Target Entity | TGI |
| --- | --- | --- |
| CC1=C(/C=C/C(C)=C/C=C/C(C)=C/C(=O)OCC2OC(n3cc(F)c(=O)[nH]c3=O)CC2OC(=O)/C=C(C)/C=C/C=C(C)/C=C/C2=C(C)CCCC2(C)C)C(C)(C)CCC1 (stereo not drawn) | SN12C renal | > 31.6 µM |
| COC(=O)c1ccccc1C1CN=NC12Cc1ccc3ccccc3c1C2=O (stereo not drawn) | SN12C renal | > 100 µM |
| Cc1[nH]c2ncn3nc(C(Cl)(Cl)Cl)nc3c2c1Cc1ccccc1 | SN12C renal | > 100 µM |
| O=C1c2ccccc2-c2c1c1ccccc1c(=O)n2Cc1ccco1 | SN12C renal | > 100 µM |
| CN(C)CCCNc1c(O)c2c(c(O)c1Cl)C(=O)C=CC2=O | SN12C renal | 3.2 µM |
| CCOC(=N)CC(=O)Nc1ccc(Cl)cc1 | SN12C renal | > 100 µM |
| C=C1C(=O)O[C@@H]2[C@H]3O[C@]3(C)CCC=C(C)CC[C@@H]12 | SN12C renal | 50.2 µM |
| CCCCCCCCCCCCCS(=O)(=O)O | SN12C renal | > 100 µM |
| Cc1ccc(S(=O)(=O)N/N=C(\CCN2CCCC2)CC(c2ccccc2)c2c(O)c3ccccc3oc2=O)cc1 (stereo not drawn) | SN12C renal | > 100 µM |
| O=C1C=CC(=O)c2c1ccc1c3ccccc3n(-c3ccccn3)c21 | SN12C renal | > 100 µM |
| CCOC(=O)C1C(=O)CC(O)(OCC)C(C(=O)OCC)C1c1ccc(OC)cc1 (stereo not drawn) | SN12C renal | > 100 µM |
| CSC(SC)=C1CC(=O)Nc2ccccc2C1=O | SN12C renal | > 100 µM |
| C[Si](C)(C)C#CCO[Si](C)(C)C | SN12C renal | > 100 µM |
| O=c1c2ccccc2nc2n1NC(c1c(Cl)cccc1Cl)N2c1cccc(Cl)c1 (stereo not drawn) | SN12C renal | 21.9 µM |
| COc1ccc(C(=O)Cn2c(C(=O)c3ccc(Cl)cc3)nc3ccccc32)cc1 | SN12C renal | > 100 µM |
| O=C(/C=C/c1ccco1)c1ccc(Nc2nc(Nc3ccc(F)cc3)nc(Nc3ccc(Cl)cc3)n2)cc1 | SN12C renal | > 100 µM |
| CC1=CC=NN2C(=O)[C@H](C)C2C1 (stereo partly drawn) | SN12C renal | > 100 µM |
| COc1ccc2[nH]cc(CCNC(C)=O)c2c1 | SN12C renal | > 100 µM |
| Cc1ccc(NC(c2ccccc2)c2ccc3cccnc3c2O)cc1 (stereo not drawn) | SN12C renal | 22.4 µM |
| O=S(=O)([O-])[O-].[OH3+].[OH3+].[OH3+].[Ru+2].c1ccccc1 | SN12C renal | > 100 µM |
| Cn1c(C(N)=O)cc2c1-c1nc(Nc3ccccc3)ncc1CCC2 | SN12C renal | > 100 µM |
| C[C@]12CC[C@@H]3c4ccc(O)cc4CC[C@H]3[C@@H]1C/C(=C\c1ccc([N+](=O)[O-])cc1)C2=O | SN12C renal | > 100 µM |
| COc1ccc2[nH]c(CCNC(=O)c3cc([N+](=O)[O-])cc([N+](=O)[O-])c3)cc2c1 | SN12C renal | > 100 µM |
| Oc1c(CN2CCC(N3CCOCC3)CC2)cc(Cc2cc(CN3CCC(N4CCOCC4)CC3)c(O)c3ncccc23)c2cccnc12 | SN12C renal | > 100 µM |
| CCOC(=O)/C(C#N)=C/c1ccc2c(-c3c(OCC)ccc4cc(/C=C(\C#N)C(=O)OCC)ccc34)c(OCC)ccc2c1 | SN12C renal | > 100 µM |
| Cc1ccc2c(c1)SSSSS2 | SN12C renal | 46.7 µM |
| COc1cc2oc(=O)cc(C)c2cc1[N+](=O)[O-] | SN12C renal | 37.2 µM |
| Cc1ccc(/C=C2\CN(C)CC3=C2OC(N)=C(C#N)C3c2ccc(C)cc2)cc1 (stereo not drawn) | SN12C renal | 35.3 µM |
| O=C(O)CC(C(=O)O)c1ccccc1[N+](=O)[O-] (stereo not drawn) | SN12C renal | > 100 µM |
| NC(=S)/N=C/c1c(O)c2ccccc2oc1=O | SN12C renal | > 100 µM |
| O=C(Cn1c(=O)ccn(C2OC(CO)C(O)C2F)c1=O)c1ccc(F)cc1 (stereo not drawn) | SN12C renal | > 100 µM |
| CCCCCC(CN1CCOCC1)C(=O)/C=C/c1ccccc1 (stereo not drawn) | SN12C renal | 10.5 µM |
| CCC1(C)C=Cc2c(cc(OC)c3c(=O)c4ccccc4n(C)c23)O1 (stereo not drawn) | SN12C renal | > 10 µM |
| CC(=O)/C(C=Nc1c(C)n(C)n(-c2ccccc2)c1=O)=C(/C)O | SN12C renal | > 100 µM |
| O=C1OC(c2ccco2)=N/C1=C\c1ccc(Cl)c(Cl)c1 | SN12C renal | > 100 µM |
| Nc1ccccc1C#CC#Cc1ccccc1N | SN12C renal | 31.4 µM |
| COc1cccc(N2C(=O)c3c(c4[nH]c5ccccc5c4c4ccc(C(C)(C)C)cc34)C2=O)c1 | SN12C renal | > 100 µM |
| CCN(CC)C(=S)SS(=O)(=O)c1ccccc1C(=O)O | SN12C renal | > 100 µM |
| CSc1ccc2c(cc1=O)[C@@H](NC(C)=O)CCc1cc(O)c(O)c(O)c1-2 | SN12C renal | > 100 µM |
| CCCCCCCCCCCCN1C(C)=CS/C1=C\C=C\c1scc(C)[n+]1CCCCCCCCCCCC | SN12C renal | 4.2 µM |
| Cc1ccc(S(=O)ON2CCC(C(=O)O)(c3ccccc3)CC2)cc1 (stereo not drawn) | SN12C renal | > 100 µM |
| C/C(=N/NC(=S)Nc1ccccc1Cl)c1ccccn1 | SN12C renal | 8.4 µM |
| Oc1ccc(C(c2ccccc2)(c2ccccc2)c2ccccc2)cc1 | SN12C renal | 31.6 µM |
